Recorded IC50 values for a group of compounds are listed next.
Target: P2Y purinoceptor 12 (Homo sapiens)
Sequence (Q9H244 whole entry): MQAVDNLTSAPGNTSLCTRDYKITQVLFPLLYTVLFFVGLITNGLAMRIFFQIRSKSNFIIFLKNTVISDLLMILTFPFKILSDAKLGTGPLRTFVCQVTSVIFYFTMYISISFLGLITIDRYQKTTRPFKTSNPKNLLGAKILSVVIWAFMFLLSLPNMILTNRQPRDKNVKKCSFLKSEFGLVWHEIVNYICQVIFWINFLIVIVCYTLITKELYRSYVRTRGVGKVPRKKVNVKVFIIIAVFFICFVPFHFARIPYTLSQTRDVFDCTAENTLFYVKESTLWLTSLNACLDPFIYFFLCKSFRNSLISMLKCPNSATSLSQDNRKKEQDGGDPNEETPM
Metric name: IC50 (nM)

INSERT INTO assay_data (compound, measured_target, meas_value) VALUES
  ('CCCS(=O)(=O)c1cnc(N2CCN(C(=O)NS(=O)(=O)c3ccc(Cl)s3)CC2)c(Cl)c1', 'P2Y purinoceptor 12 (Homo sapiens)', 14000),
  ('CCOC(=O)c1cc(C#N)c(N2CC(NC(=O)NS(=O)(=O)c3ccccc3)C2)nc1C', 'P2Y purinoceptor 12 (Homo sapiens)', 190),
  ('CCOC(=O)c1cc(C#N)c(N2CCN(C(=O)NS(=O)(=O)c3ccc(Cl)s3)CC2C)nc1C (racemic)', 'P2Y purinoceptor 12 (Homo sapiens)', 37),
  ('CCOC(=O)c1cc(C#N)c(N2CCN(C(=O)NS(=O)(=O)c3ccc(Cl)cc3)CC2)nc1C(F)(F)F', 'P2Y purinoceptor 12 (Homo sapiens)', 97),
  ('CCOC(=O)c1cc(C#N)c(N2CC(NC(=O)NS(=O)(=O)c3ccc(Cl)cc3)C2)nc1C', 'P2Y purinoceptor 12 (Homo sapiens)', 78),
  ('CCOC(=O)c1cc(C#N)c(N2CCN(C(=O)NS(=O)(=O)c3ccc(Cl)s3)CC2)nc1C', 'P2Y purinoceptor 12 (Homo sapiens)', 34),
  ('CCOC(=O)c1cc(C#N)c(N2CCN(C(=O)NS(=O)(=O)c3ccccc3C)CC2)nc1C(F)(F)F', 'P2Y purinoceptor 12 (Homo sapiens)', 380),
  ('CCOC(=O)c1cc(C#N)c(N2CCN(C(=O)NS(=O)(=O)c3ccc(Cl)s3)C(CCC(=O)O)C2)nc1C(F)(F)F (racemic)', 'P2Y purinoceptor 12 (Homo sapiens)', 110),
  ('CCOC(=O)c1cc(C#N)c(N2CC(NC(=O)NS(=O)(=O)Cc3ccccc3)C2)nc1C', 'P2Y purinoceptor 12 (Homo sapiens)', 82),
  ('CCOC(=O)c1cnc(N2CCN(C(=O)NS(=O)(=O)c3ccc(Cl)s3)CC2)c(Cl)c1', 'P2Y purinoceptor 12 (Homo sapiens)', 100),
  ('CCOC(=O)c1cc(C#N)c(N2CCC(NC(=O)NS(=O)(=O)c3ccc(Cl)cc3)CC2)nc1C', 'P2Y purinoceptor 12 (Homo sapiens)', 260),
  ('CCCOC(=O)c1cnc(N2CCN(C(=O)NS(=O)(=O)c3ccc(Cl)s3)CC2)c(Cl)c1', 'P2Y purinoceptor 12 (Homo sapiens)', 240),
  ('COC(=O)c1cnc(N2CCN(C(=O)NS(=O)(=O)c3ccc(Cl)s3)CC2)c(Cl)c1', 'P2Y purinoceptor 12 (Homo sapiens)', 3200),
  ('CCOC(=O)c1cnc(N2CC(NC(=O)NS(=O)(=O)c3ccccc3)C2)c(Cl)c1', 'P2Y purinoceptor 12 (Homo sapiens)', 380),
  ('CCCC(=O)c1cnc(N2CCN(C(=O)NS(=O)(=O)c3ccc(Cl)s3)CC2)c(Cl)c1', 'P2Y purinoceptor 12 (Homo sapiens)', 890),
  ('CC(C)CCOC(=O)c1cnc(N2CCN(C(=O)NS(=O)(=O)c3ccc(Cl)s3)CC2)c(Cl)c1', 'P2Y purinoceptor 12 (Homo sapiens)', 110),
  ('CCOC(=O)c1cnc(N2CCN(C(=O)NS(=O)(=O)c3ccccc3C)CC2)c(Cl)c1', 'P2Y purinoceptor 12 (Homo sapiens)', 260),
  ('CCCCOC(=O)c1cnc(N2CCN(C(=O)NS(=O)(=O)c3ccc(Cl)s3)CC2)c(Cl)c1', 'P2Y purinoceptor 12 (Homo sapiens)', 150),
  ('CCOC(=O)c1cc(C#N)c(N2CCN(C(=O)NS(=O)(=O)c3ccccc3)CC2)nc1C(F)(F)F', 'P2Y purinoceptor 12 (Homo sapiens)', 220),
  ('CCOC(=O)c1cnc(N2CCN(C(=O)NS(=O)(=O)c3ccc(C)cc3)CC2)c(Cl)c1', 'P2Y purinoceptor 12 (Homo sapiens)', 300),
  ('CCOC(=O)c1cc(C#N)c(N2CC3CN(C(=O)NS(=O)(=O)c4ccccc4)CC3C2)nc1C (configuration not stated)', 'P2Y purinoceptor 12 (Homo sapiens)', 580),
  ('CCOC(=O)c1cc(C#N)c(N2CCCN(C(=O)NS(=O)(=O)c3ccc(Cl)s3)CC2)nc1C', 'P2Y purinoceptor 12 (Homo sapiens)', 240),
  ('CCOC(=O)c1cnc(N2CCN(C(=S)NC(=O)c3ccccc3)CC2)c(Cl)c1', 'P2Y purinoceptor 12 (Homo sapiens)', 990),
  ('CCOC(=O)c1cnc(N2CCN(C(=O)NS(=O)(=O)c3ccc(F)cc3)CC2)c(Cl)c1', 'P2Y purinoceptor 12 (Homo sapiens)', 470),
  ('CCOC(=O)c1cnc(N2CCN(C(=S)Nc3ccccc3)CC2)c(Cl)c1', 'P2Y purinoceptor 12 (Homo sapiens)', 3700),
  ('CCOC(=O)c1cc(C#N)c(N2CCN(C(=O)NS(=O)(=O)c3ccc(Cl)s3)CC2)nc1C(F)(F)F', 'P2Y purinoceptor 12 (Homo sapiens)', 39),
  ('O=C(c1cnc(N2CCN(C(=O)NS(=O)(=O)c3ccc(Cl)s3)CC2)c(Cl)c1)C1CC1', 'P2Y purinoceptor 12 (Homo sapiens)', 1300),
  ('CCOC(=O)c1cc(C#N)c(N2CCN(C(=O)NS(=O)(=O)Cc3ccccc3)CC2)nc1C', 'P2Y purinoceptor 12 (Homo sapiens)', 54),
  ('CC(C)OC(=O)c1cnc(N2CCN(C(=O)NS(=O)(=O)c3ccc(Cl)s3)CC2)c(Cl)c1', 'P2Y purinoceptor 12 (Homo sapiens)', 530),
  ('CCOC(=O)c1cc(C#N)c(N2CCC(NC(=O)NS(=O)(=O)c3ccc(Cl)s3)CC2)nc1C', 'P2Y purinoceptor 12 (Homo sapiens)', 57),
  ('CCOC(=O)c1cc(C#N)c(N2CCN(C(=O)NS(=O)(=O)c3ccccc3Cl)CC2)nc1C(F)(F)F', 'P2Y purinoceptor 12 (Homo sapiens)', 470),
  ('CCOC(=O)c1cnc(N2CCN(C(=O)NS(=O)(=O)c3ccccc3)CC2)c(Cl)c1', 'P2Y purinoceptor 12 (Homo sapiens)', 220);
